# method_description: self-splicing fitness, log relative to wild type (ln ratio); higher = more splicing; Tetrahymena group I intron in knt gene, E. coli kanamycin selection, DiMSum; sequences stand for … in CUCUCU…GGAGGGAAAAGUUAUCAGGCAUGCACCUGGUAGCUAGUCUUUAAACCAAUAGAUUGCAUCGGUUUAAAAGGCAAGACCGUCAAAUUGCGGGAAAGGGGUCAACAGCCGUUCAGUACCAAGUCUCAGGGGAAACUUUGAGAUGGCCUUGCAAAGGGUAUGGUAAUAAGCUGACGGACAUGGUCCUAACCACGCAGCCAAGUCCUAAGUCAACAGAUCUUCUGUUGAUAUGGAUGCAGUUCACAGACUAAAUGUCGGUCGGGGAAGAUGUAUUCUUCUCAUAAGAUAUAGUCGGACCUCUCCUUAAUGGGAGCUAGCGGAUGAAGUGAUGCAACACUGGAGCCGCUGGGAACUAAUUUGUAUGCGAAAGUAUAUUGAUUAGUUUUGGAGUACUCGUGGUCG;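 also: selection with 25 µg/mL kanamycin versus none on LB agar overnight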
# cond: 30 °C
Listing of entries alongside the reported self-splicing fitness (ln).

>  <entry_sequence>
CGUCAGCAAUAUUACGGUAU

>  <self-splicing fitness (ln)>
-2.04

$$$$
>  <entry_sequence>
CCGAAGCAAUAUUACGCUAG

>  <self-splicing fitness (ln)>
-2.1

$$$$
>  <entry_sequence>
UUAAAGCAAUAUUACGCGCC

>  <self-splicing fitness (ln)>
-0.43

$$$$
>  <entry_sequence>
UUCCAGCAAUAUUACGUCCU

>  <self-splicing fitness (ln)>
-2.67

$$$$
>  <entry_sequence>
UUGGAGCAAUAUUACGGUGG

>  <self-splicing fitness (ln)>
-3.06

$$$$
>  <entry_sequence>
UCGCAGCAAUAUUACGCCGU

>  <self-splicing fitness (ln)>
-3.48

$$$$
>  <entry_sequence>
GCCAAGCAAUAUUACGCAGG

>  <self-splicing fitness (ln)>
-2.98

$$$$
>  <entry_sequence>
UCCAAGCAAUAUUACGGGCU

>  <self-splicing fitness (ln)>
-3.43

$$$$
>  <entry_sequence>
UCCCAGCAAUAUUACGCGAA

>  <self-splicing fitness (ln)>
-2.11

$$$$
>  <entry_sequence>
GUGUAGCAAUAUUACGACUU

>  <self-splicing fitness (ln)>
-0.0355

$$$$
>  <entry_sequence>
CCGAAGCAAUAUUACGUUGC

>  <self-splicing fitness (ln)>
-3.51

$$$$
>  <entry_sequence>
UGAGAGCAAUAUUACGGCGU

>  <self-splicing fitness (ln)>
-4.04

$$$$
>  <entry_sequence>
CCGUAGCAAUAUUACGUUGA

>  <self-splicing fitness (ln)>
-2.67

$$$$
>  <entry_sequence>
UGCAAGCAAUAUUACGGUAG

>  <self-splicing fitness (ln)>
-0.738

$$$$
>  <entry_sequence>
AUCCAGCAAUAUUACGGGGG

>  <self-splicing fitness (ln)>
-3.15

$$$$
>  <entry_sequence>
AGGGAGCAAUAUUACGUUUU

>  <self-splicing fitness (ln)>
-2.81

$$$$
>  <entry_sequence>
CCCGAGCAAUAUUACGUCCA

>  <self-splicing fitness (ln)>
-3.48

$$$$
>  <entry_sequence>
ACGAAGCAAUAUUACGAAGC

>  <self-splicing fitness (ln)>
-3.6

$$$$
>  <entry_sequence>
UACCAGCAAUAUUACGGUUG

>  <self-splicing fitness (ln)>
-1.64

$$$$
>  <entry_sequence>
CCGCAGCAAUAUUACGGUUU

>  <self-splicing fitness (ln)>
-3.45

$$$$
>  <entry_sequence>
AAAAAGCAAUAUUACGAUUG

>  <self-splicing fitness (ln)>
-1.86

$$$$
>  <entry_sequence>
GGCUAGCAAUAUUACGAUUG

>  <self-splicing fitness (ln)>
-1.67

$$$$
>  <entry_sequence>
UGCUAGCAAUAUUACGGCUG

>  <self-splicing fitness (ln)>
-0.317

$$$$
>  <entry_sequence>
CGGGAGCAAUAUUACGCUGA

>  <self-splicing fitness (ln)>
-1.34

$$$$
>  <entry_sequence>
UAACAGCAAUAUUACGGGCC

>  <self-splicing fitness (ln)>
-3.47

$$$$
>  <entry_sequence>
AACCAGCAAUAUUACGUUAC

>  <self-splicing fitness (ln)>
-2.93

$$$$
>  <entry_sequence>
UUAGAGCAAUAUUACGGGCG

>  <self-splicing fitness (ln)>
-2.23

$$$$
>  <entry_sequence>
GGCUAGCAAUAUUACGAUGU

>  <self-splicing fitness (ln)>
-1.45

$$$$
>  <entry_sequence>
GCCUAGCAAUAUUACGCCCA

>  <self-splicing fitness (ln)>
-2.69

$$$$
>  <entry_sequence>
AAUCAGCAAUAUUACGACAG

>  <self-splicing fitness (ln)>
-1.31

$$$$
>  <entry_sequence>
CCUCAGCAAUAUUACGCGUA

>  <self-splicing fitness (ln)>
-2.71

$$$$
>  <entry_sequence>
GCGCAGCAAUAUUACGACCC

>  <self-splicing fitness (ln)>
0.715

$$$$
>  <entry_sequence>
CCUCAGCAAUAUUACGCGAG

>  <self-splicing fitness (ln)>
-2.89

$$$$
>  <entry_sequence>
UGCCAGCAAUAUUACGCCGG

>  <self-splicing fitness (ln)>
-4.03

$$$$
>  <entry_sequence>
AUUUAGCAAUAUUACGGAAA

>  <self-splicing fitness (ln)>
-2.75

$$$$
>  <entry_sequence>
CAUCAGCAAUAUUACGACAU

>  <self-splicing fitness (ln)>
-2.91

$$$$
>  <entry_sequence>
GGACAGCAAUAUUACGAGAC

>  <self-splicing fitness (ln)>
-2.05

$$$$
>  <entry_sequence>
UUUUAGCAAUAUUACGUCGG

>  <self-splicing fitness (ln)>
-1.95

$$$$
>  <entry_sequence>
AGACAGCAAUAUUACGGAUC

>  <self-splicing fitness (ln)>
-3.16

$$$$
>  <entry_sequence>
GAGCAGCAAUAUUACGCGGC

>  <self-splicing fitness (ln)>
-3.97

$$$$
>  <entry_sequence>
AAUUAGCAAUAUUACGUUAG

>  <self-splicing fitness (ln)>
-4.03

$$$$
>  <entry_sequence>
AGUAAGCAAUAUUACGCUGG

>  <self-splicing fitness (ln)>
-3.89

$$$$
>  <entry_sequence>
UGCGAGCAAUAUUACGAAAG

>  <self-splicing fitness (ln)>
-2.87

$$$$
